The reported numbers originate from paper PMC12057046.

Target: USP8 Rhod domain (Homo sapiens)
Construct: USP8 Rhod (174–317) (UniProt: P40818); GST (cleaved yes); made in house; host or cells: Escherichia coli BL21-Gold (DE3)
Sequence (P40818 174-317): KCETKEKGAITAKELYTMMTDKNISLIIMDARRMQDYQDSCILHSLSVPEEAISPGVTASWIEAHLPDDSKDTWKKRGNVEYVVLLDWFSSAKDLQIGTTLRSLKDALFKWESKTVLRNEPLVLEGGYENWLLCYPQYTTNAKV
Test: Peptide-phage display-based deep mutational scanning (DMS), USP8 Rhod domain
Assay type: binding
Conditions: ProP-PD DMS, bait USP8_Rhodanese__P40818_174_317; pair wild-type GMERVLGGLSSPLRLL (wt_00013) vs mutant; positive where wild-type fraction is higher, negative where mutant fraction is higher
Threshold check on hit_pair_ratio: at or above 10 gives yes, strictly below gives no.

GMERVLGGLSSPVRLL : no
GMERVLGGLSRPLRLL : yes
GMERVLGGMSSPLRLL : yes
GMERVLGGLSSPYRLL : yes
GMERVLGGLSYPLRLL : yes
GMERVLGGLSSPLYLL : no
GMERVLGGLSSPFRLL : yes
GMERVLGGRSSPLRLL : yes
GMERVLGGLSSPLRLI : no
GMERVLGGLSSPLILL : no

Is the recorded value of hit_pair_ratio equal to or greater than 10 for this sequence? `GMERVLGGLSSPLRAL`
yes

What would you report for `GMERVLGGLSSPLRLA` ?
yes

What would you report for `GMERVLGGLSFPLRLL` ?
yes

What would you report for `GMERVLGGLSSPGRLL` ?
yes

What would you report for `GMERVLGGHSSPLRLL` ?
yes

What would you report for `GMERVLGGLSSPLRLV` ?
yes

What would you report for `GMERVLGGLSSPTRLL` ?
no

What would you report for `GMERVLGGLSSPLRGL` ?
yes

###

Molecular target: USP8 Rhod domain (Homo sapiens)
Construct: USP8 Rhod (174–317) (UniProt: P40818); GST (cleaved yes); made in house; host or cells: Escherichia coli BL21-Gold (DE3)
Sequence (P40818 174-317): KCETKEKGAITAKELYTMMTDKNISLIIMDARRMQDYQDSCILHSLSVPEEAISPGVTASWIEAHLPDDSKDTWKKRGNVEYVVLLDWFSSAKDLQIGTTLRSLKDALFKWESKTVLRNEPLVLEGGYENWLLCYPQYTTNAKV
Test: Peptide-phage display-based deep mutational scanning (DMS), USP8 Rhod domain
Assay type: binding
Settings: PSSM, library USP8_DMS, days 2,3; position 7
PROPERTY_MEASURED: proportion of amino acid at position 7 (wt G)

Recorded proportion of amino acid at position 7 (wt G), per entry:
KIAA1614_Q5VZ46_569_584 G7E (MERVLGELSSPLRLLP; UniProt Q5VZ46 569-584, looked up, variant G7E) : 0.02
KIAA1614_Q5VZ46_569_584 G7D (MERVLGDLSSPLRLLP; peptide 569-584; UniProt Q5VZ46 569-584, looked up, variant G7D) : 0.26

Could you tell me which proportion of amino acid at position 7 (wt G) is on file for KIAA1614_Q5VZ46_569_584 G7T (MERVLGTLSSPLRLLP; peptide 569-584; UniProt Q5VZ46 569-584, looked up, variant G7T) ?
0.46

What would you report for KIAA1614_Q5VZ46_569_584 G7Q (MERVLGQLSSPLRLLP; UniProt Q5VZ46 569-584, looked up, variant G7Q) ?
0.03

What would you report for KIAA1614_Q5VZ46_569_584 G7F (MERVLGFLSSPLRLLP; UniProt Q5VZ46 569-584, looked up, variant G7F) ?
0.0448

What would you report for KIAA1614_Q5VZ46_569_584 G7R (MERVLGRLSSPLRLLP; UniProt Q5VZ46 569-584, looked up, variant G7R) ?
0.000822

What would you report for KIAA1614_Q5VZ46_569_584 G7H (MERVLGHLSSPLRLLP; UniProt Q5VZ46 569-584, looked up, variant G7H) ?
0.00204

What would you report for KIAA1614_Q5VZ46_569_584 G7Y (MERVLGYLSSPLRLLP; peptide 569-584; UniProt Q5VZ46 569-584, looked up, variant G7Y) ?
0.00809
